System: KS-1;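 also: growth inhibition of KS-1 cells, read out with a cell viability assay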
Assay procedure: cells
Type: functional, cell-based
Condition info: Homo sapiens
Description: SANGER: Inhibition of human KS-1 cell growth in a cell viability assay.
pIC50: −log10 of the molar value.
Each entry gets rule not met if its pIC50 stays under 7, and rule met if its pIC50 is 7 or above.

# Molecule, Target desc, Group
records = [
    ("COc1cc(C)c(Sc2cnc(NC(=O)c3ccc(CNC(C)C(C)(C)C)cc3)s2)cc1C(=O)N1CCN(C(C)=O)CC1 (stereo unspecified)", "KS-1", "rule not met"),
    ("CC(C)=CC[C@@H](O)C1=CC(=O)c2c(O)ccc(O)c2C1=O [SHIKONIN]", "KS-1", "rule met"),
    ("CC[C@]1(O)C[C@@H]2CN(CCc3c([nH]c4ccccc34)[C@@](C(=O)OC)(c3cc4c(cc3OC)N(C)[C@H]3[C@@](O)(C(=O)OC)[C@H](OC(C)=O)[C@]5(CC)C=CCN6CC[C@]43[C@@H]65)C2)C1 [VINBLASTINE]", "KS-1", "rule met"),
    ("Cc1[nH]c(/C=C2\\C(=O)Nc3ccc(S(=O)(=O)Cc4c(Cl)cccc4Cl)cc32)c(C)c1C(=O)N1CCC[C@@H]1CN1CCCC1 [PHA-665752]", "KS-1", "rule not met"),
]

I'd appreciate it if you could say whether Cc1ccc(NC(=O)c2cccc(C(C)(C)C#N)c2)cc1Nc1ccc2ncn(C)c(=O)c2c1 has pIC50 at least equal to 7.
rule not met
